The measured values listed here are drawn from patent US20230212170A1.

- Test system: MIA PaCa-2
- protocolSummary: Tumor cell anti-proliferation assay (CTG assay), MIA PaCa-2
- Assay type: cell-based
- experimentalConditions: MIA PaCa-2, 3-days incubation, CTG; read-out: IC50 MIA PaCa-2
pIC50: −log10 of the molar value.
Outcome label depends on pIC50 relative to 6: at/above gives met, below gives not met.

# compound, experimentalSystem, classification
measured = [
    ("N.N.[Cl][Pt][Cl] [Cisplatin, reference compound]", "MIA PaCa-2", "not met"),
    ("C=CC(=O)N1CCN(c2nc(OC[C@@H]3CCCN3C)nc3c(=O)n(-c4cccc5cccc(Cl)c45)c(C(F)(F)F)nc23)C[C@@H]1CC#N (single isomer, unassigned)", "MIA PaCa-2", "met"),
    ("C=CC(=O)N1C[C@H](C)N(c2nc(OC[C@@H]3CCCN3C)nc3c(=O)n(-c4cc(OC)cc5ccccc45)c(C(F)(F)F)nc23)[C@@H](C)C1 (single isomer, unassigned) [Example 35-a]", "MIA PaCa-2", "not met"),
    ("C=CC(=O)N1CCN(c2nc(OC[C@@H]3CCCN3C)nc3c(=O)n(-c4cccc5cccc(Cl)c45)c(CC)nc23)[C@@H](C)C1 (single isomer, unassigned)", "MIA PaCa-2", "not met"),
    ("C=CC(=O)N1CCN(c2nc(OC[C@@H]3CCCN3C)nc3c(=O)n(-c4cccc5cccc(Cl)c45)c(C)nc23)[C@@H](C)C1 (single isomer, unassigned)", "MIA PaCa-2", "not met"),
]

###

- Test system: NCI-H358
- protocolSummary: Tumor cell anti-proliferation assay (CTG assay), NCI-H358
- Type: cell-based
- experimentalConditions: NCI-H358, 3-days incubation, CTG; read-out: IC50 NCI-H358

# compound, IC50, nM
rows = [
    ("C=CC(=O)N1C[C@H](C)N(c2nc(OC[C@@H]3CCCN3C)nc3c(=O)n(-c4cc(OC)cc5ccccc45)c(C(F)(F)F)nc23)[C@@H](C)C1 (single isomer, unassigned) [Example 35-a]", 1180),
    ("C=CC(=O)N1CCN(c2nc(OC[C@@H]3CCCN3C)nc3c(=O)n(-c4cccc5cccc(Cl)c45)c(C(F)(F)F)nc23)[C@@H](C)C1 (single isomer, unassigned) [Compound 24-b]", 1460),
    ("C=CC(=O)N1CCN(c2nc(OC[C@@H]3CCCN3C)nc3c(=O)n(-c4cccc5cccc(Cl)c45)c(C(F)(F)F)nc23)[C@@H](C)C1 (single isomer, unassigned) [Compound 24-a]", 407),
    ("C=CC(=O)N1C[C@H](C)N(c2nc(OC[C@@H]3CCCN3C)nc3c(=O)n(-c4cccc5cccc(Cl)c45)c(C(F)(F)F)nc23)[C@@H](C)C1 (single isomer, unassigned) [Example 29-a]", 148),
    ("C=CC(=O)N1C[C@H](C)N(c2nc(OC[C@@H]3CCCN3C)nc3c(=O)n(-c4cccc5cccc(F)c45)c(C(F)(F)F)nc23)[C@@H](C)C1 (single isomer, unassigned) [Example 34-b]", 82),
]

###

- protocolSummary: Pharmacokinetics study in plasma of ICR mice, intravenous or oral administration
- Format: in vivo
- experimentalConditions: mouse, 10 mg/kg; PO, 10 mpk, male ICR mice, fasted, plasma
readoutLabel: Tmax (min)

# molecule, reportedValue
data = [
    ("C=CC(=O)N1C[C@H](C)N(c2nc(OC[C@@H]3CCCN3C)nc3c(=O)n(-c4cccc5cccc(Cl)c45)c(C(F)(F)F)nc23)[C@@H](C)C1 (single isomer, unassigned) [Example 29-b]", 25.2),
]
